Each entry below carries its recorded PRDX2 down regulation relative fold change.
Test system: PRDX2
Test: Human oxidative stress RT2 Profiler PCR array in HGEPp cells: PRDX2
Settings: HGEPp cells pretreated 24 h at 100 μg/ml; ΔΔCt
Report as a plain number; the unit fold is understood.

Solved entries (count: 4):
compound="CCCC[n+]1ccncc1-c1ssc(=S)c1C.[Cl-] [Example 4, n-butyl chloride complex of oltipraz]" reported_value=0.32
compound="Cc1c(-c2cncc[n+]2C(=O)c2ccccc2)ssc1=S.[Cl-] [Example 6, benzoyl chloride complex of oltipraz]" reported_value=0.31
compound="Cc1c(-c2cncc[n+]2C)ssc1=S.[I-] [Example 5, methyl iodide complex of oltipraz]" reported_value=0.32
compound=COP(=O)([O-])OC.Cc1c(-c2c[n+](C)ccn2)ssc1=S reported_value=0.27

// next item, PRDX2 down regulation relative fold change requested
Give me measured PRDX2 down regulation relative fold change, please, for this compound: CC(=O)[n+]1ccncc1-c1ssc(=S)c1C.[Cl-] [Example 3, acetyl chloride complex of oltipraz]
0.33

----------
Each entry below carries its recorded ROS level relative to Normal (100%, optical density baseline).
System: HGEPp cells
Test: ROS production in H2O2-induced oxidatively stressed HGEPp cells
Assay type: cell-based, human
Settings: HGEPp cells pretreated 24 hrs at 100 μg/mL prior to 0.3 mM H2O2 for 4 h; positive control 139%
// unit must come after the numeric part

Solved entries (count: 6):
compound="CC(=O)[n+]1ccncc1-c1ssc(=S)c1C.[Cl-] [Example 3, acetyl chloride complex of oltipraz]" reported_value=129%
compound="CCCC[n+]1ccncc1-c1ssc(=S)c1C.[Cl-] [Example 4, n-butyl chloride complex of oltipraz]" reported_value=128%
compound="Cc1c(-c2cnccn2)ssc1=S.Cl [Example 1, hydrochloride complex of oltipraz]" reported_value=128%
compound=COP(=O)([O-])OC.Cc1c(-c2c[n+](C)ccn2)ssc1=S reported_value=112%
compound=Cc1c(-c2cncc[n+]2OC2=CC(=O)OC2=O)ssc1=S reported_value=116%
compound="Cc1c(-c2cncc[n+]2C)ssc1=S.[I-] [Example 5, methyl iodide complex of oltipraz]" reported_value=134%

Lab note: HGEPp cells assay, enter ROS level relative to Normal (100%, optical density baseline) for Cc1c(-c2cncc[n+]2C(=O)c2ccccc2)ssc1=S.[Cl-] [Example 6, benzoyl chloride complex of oltipraz] here
131%

Lab note: HGEPp cells assay, enter ROS level relative to Normal (100%, optical density baseline) for Cc1c(-c2cnccn2)ssc1=S.O=S(=O)(O)CCO here
113%

----------
Tested on: GPX1
Assay: Human oxidative stress RT2 Profiler PCR array in HGEPp cells: GPX1
Assay type: cell-based
Settings: HGEPp cells pretreated 24 h at 100 μg/ml; ΔΔCt
Readout: GPX1 up regulation relative fold change (fold)
Report as a plain number; the unit fold is understood.

Solved entries (count: 4):
compound="Cc1c(-c2cncc[n+]2C(=O)c2ccccc2)ssc1=S.[Cl-] [Example 6, benzoyl chloride complex of oltipraz]" reported_value=4.43
compound="CCCC[n+]1ccncc1-c1ssc(=S)c1C.[Cl-] [Example 4, n-butyl chloride complex of oltipraz]" reported_value=4.80
compound=COP(=O)([O-])OC.Cc1c(-c2c[n+](C)ccn2)ssc1=S reported_value=4.89
compound="CC(=O)[n+]1ccncc1-c1ssc(=S)c1C.[Cl-] [Example 3, acetyl chloride complex of oltipraz]" reported_value=4.76

// next item, GPX1 up regulation relative fold change requested
Lab note: GPX1 assay, enter GPX1 up regulation relative fold change for Cc1c(-c2cncc[n+]2C)ssc1=S.[I-] [Example 5, methyl iodide complex of oltipraz] here
4.98

Data provenance: patent US20230255961A1
